Origin of measurements: patent US20230310428A1

// reported IC50 for each item listed
- subject.of.test: various mutants of kinase EGFR (BaF3 cell lines stably transfected with kinase) (Homo sapiens, UniProt P00533)
- Construct: other: BaF3 cells stably transfected with EGFR Δ19Del; MTS, 48 h; other: BaF3 cell line stably transfected with EGFR Δ19Del
- Sequence (P00533 with tags, fused parts or gaps DEL746-750): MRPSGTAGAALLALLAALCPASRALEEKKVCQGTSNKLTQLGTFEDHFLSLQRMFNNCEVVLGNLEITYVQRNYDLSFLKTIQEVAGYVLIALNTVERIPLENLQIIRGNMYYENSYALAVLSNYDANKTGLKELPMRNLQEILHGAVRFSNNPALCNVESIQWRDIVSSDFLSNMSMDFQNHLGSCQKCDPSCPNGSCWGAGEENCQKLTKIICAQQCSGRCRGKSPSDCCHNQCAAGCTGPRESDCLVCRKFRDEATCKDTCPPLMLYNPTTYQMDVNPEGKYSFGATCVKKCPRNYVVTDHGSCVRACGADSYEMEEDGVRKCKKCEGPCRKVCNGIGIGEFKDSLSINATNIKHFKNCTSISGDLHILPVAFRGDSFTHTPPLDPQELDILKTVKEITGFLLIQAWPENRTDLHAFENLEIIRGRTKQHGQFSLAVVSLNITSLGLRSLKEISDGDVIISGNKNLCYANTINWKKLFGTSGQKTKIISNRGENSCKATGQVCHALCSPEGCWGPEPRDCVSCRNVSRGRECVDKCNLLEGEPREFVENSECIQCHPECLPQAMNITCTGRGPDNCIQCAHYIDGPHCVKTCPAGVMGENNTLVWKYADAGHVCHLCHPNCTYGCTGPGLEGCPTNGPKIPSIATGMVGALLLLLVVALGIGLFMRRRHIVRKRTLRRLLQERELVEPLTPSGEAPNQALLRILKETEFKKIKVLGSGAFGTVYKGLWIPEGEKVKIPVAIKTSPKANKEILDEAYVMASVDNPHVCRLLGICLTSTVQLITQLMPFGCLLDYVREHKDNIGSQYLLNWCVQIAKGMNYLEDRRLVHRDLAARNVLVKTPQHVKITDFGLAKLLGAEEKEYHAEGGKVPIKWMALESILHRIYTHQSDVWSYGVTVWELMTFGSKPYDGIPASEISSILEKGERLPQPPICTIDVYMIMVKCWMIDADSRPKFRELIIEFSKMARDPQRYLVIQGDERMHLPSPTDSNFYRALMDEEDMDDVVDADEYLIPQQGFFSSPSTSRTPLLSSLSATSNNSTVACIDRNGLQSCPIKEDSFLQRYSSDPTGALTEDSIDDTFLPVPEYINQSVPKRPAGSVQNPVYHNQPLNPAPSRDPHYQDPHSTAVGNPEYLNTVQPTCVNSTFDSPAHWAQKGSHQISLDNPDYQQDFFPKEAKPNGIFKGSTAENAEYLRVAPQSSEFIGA
- run.description: Growth inhibitory activity of compounds on BaF3 cell lines stably transfected with kinase (MTS, 48 h)
- Type: cell-based
- condition.info: BaF3 cell line stably transfected with EGFR Δ19Del, read-out: Δ19Del growth inhibitory activity IC50

molecule	result
CCc1cc(Nc2nc(Nc3ccc4nccnc4c3N(C)S(C)(=O)=O)c3cc[nH]c3n2)c(OC)nc1N1CCC(N2CCN(C)CC2)CC1 [II-2-7]	50 to 500 nM

Prompt line: Quick one: IC50 of COc1cc(N2CCC(N3CCN(C)CC3)CC2)c(C(C)C)cc1Nc1nccc(Nc2ccc3nccnc3c2N(C)S(C)(=O)=O)n1 [Compound I-342] ?
Response line: 50 to 500 nM

Prompt line: Quick one: IC50 of CCc1cnc(Nc2cc(F)c(N3CCC(N4CCN(C)CC4)CC3)c(F)c2)nc1Nc1ccc2nccnc2c1N(C)S(C)(=O)=O [Compound I-349] ?
Response line: 50 to 500 nM

---

- subject.of.test: various mutants of kinase EGFR (BaF3 cell lines stably transfected with kinase) (Homo sapiens, UniProt P00533, L858R)
- Construct: expressed in transfected cells; host or cells: BaF3
- Sequence (P00533 25-1210 L858R): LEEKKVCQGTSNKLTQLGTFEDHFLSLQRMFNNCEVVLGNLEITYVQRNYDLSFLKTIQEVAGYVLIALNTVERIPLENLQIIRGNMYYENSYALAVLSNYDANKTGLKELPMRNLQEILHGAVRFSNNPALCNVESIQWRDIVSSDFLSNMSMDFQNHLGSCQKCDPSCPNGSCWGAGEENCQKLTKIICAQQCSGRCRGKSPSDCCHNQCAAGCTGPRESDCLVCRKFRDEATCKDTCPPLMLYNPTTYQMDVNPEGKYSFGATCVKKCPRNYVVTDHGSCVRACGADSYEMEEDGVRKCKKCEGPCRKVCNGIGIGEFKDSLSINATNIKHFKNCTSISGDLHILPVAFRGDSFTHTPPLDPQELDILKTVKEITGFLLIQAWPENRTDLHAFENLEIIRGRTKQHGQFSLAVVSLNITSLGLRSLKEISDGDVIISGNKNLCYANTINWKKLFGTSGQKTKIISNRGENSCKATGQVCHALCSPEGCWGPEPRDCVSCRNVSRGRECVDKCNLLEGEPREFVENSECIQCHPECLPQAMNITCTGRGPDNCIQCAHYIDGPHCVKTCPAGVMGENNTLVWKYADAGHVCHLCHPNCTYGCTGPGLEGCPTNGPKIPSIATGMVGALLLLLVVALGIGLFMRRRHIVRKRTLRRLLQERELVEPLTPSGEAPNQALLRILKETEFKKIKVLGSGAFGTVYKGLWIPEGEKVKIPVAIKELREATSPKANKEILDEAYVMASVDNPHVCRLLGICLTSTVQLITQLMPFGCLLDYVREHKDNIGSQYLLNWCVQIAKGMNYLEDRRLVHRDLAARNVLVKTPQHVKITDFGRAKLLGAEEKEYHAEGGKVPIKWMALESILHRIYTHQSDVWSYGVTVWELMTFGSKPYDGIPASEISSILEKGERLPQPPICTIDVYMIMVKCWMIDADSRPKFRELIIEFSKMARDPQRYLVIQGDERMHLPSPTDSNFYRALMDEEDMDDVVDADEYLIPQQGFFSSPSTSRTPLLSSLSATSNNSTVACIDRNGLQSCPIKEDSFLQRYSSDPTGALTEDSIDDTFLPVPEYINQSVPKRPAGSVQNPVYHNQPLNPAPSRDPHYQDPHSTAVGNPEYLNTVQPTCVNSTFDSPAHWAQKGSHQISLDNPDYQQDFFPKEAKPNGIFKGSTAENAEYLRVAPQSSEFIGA
- run.description: Growth inhibitory activity of compounds on BaF3 cell lines stably transfected with kinase (MTS, 48 h)
- Type: cell-based
- condition.info: BaF3 cell line stably transfected with EGFR L858R, read-out: L858R growth inhibitory activity IC50
- Method: The activity of compounds against various mutants of kinase EGFR was evaluated by their effect of inhibiting growth of BaF3 cell lines stably transfected with kinase. The specific test method was given as follows: […] 3) Compound test: cells were incubated into a 96-well culture plate, the volume of cytosol was 90 µL, and then 10 µL of the compound at each gradient concentration was added. […] OD values at 490 nm were measured by a microplate reader (VARIOSKAN FLASH, Thermo). […]
pIC50: −log10 of the molar value.
measurement.label: pIC50

compound	result
CCc1cc(Nc2nc(Nc3ccc4nccnc4c3N(C)S(C)(=O)=O)c3[nH]ccc3n2)c(OC)cc1N1CCN(C)CC1 [II-1-34]	5.60 to 6.30

Prompt line: Quick one: pIC50 of Cc1cc(Nc2ncc(Br)c(Nc3ccc4nccnc4c3N(C)S(C)(=O)=O)n2)nn1C [Compound I-385] ?
Response line: 5.60 to 6.30

Prompt line: Quick one: pIC50 of CCc1cc(Nc2nc(Nc3ccc4nccnc4c3N(C)S(C)(=O)=O)c3[nH]ccc3n2)c(OC)cc1N1CCC(N2CCN(C)CC2)CC1 [II-1-20] ?
Response line: 6.30 to 7.30

Prompt line: Quick one: pIC50 of CCc1cnc(Nc2cc(C)c(N3CCC(N4CCN(C)CC4)CC3)cc2OC)nc1Nc1ccc2nccnc2c1N(C)S(C)(=O)=O [Compound I-317] ?
Response line: ≥ 7.30

Prompt line: Quick one: pIC50 of CCOc1cnc(Nc2cc(CC)c(N3CCC(N4CCN(C)CC4)CC3)nc2OC)nc1Nc1ccc2nccnc2c1N(C)S(C)(=O)=O [Compound I-338] ?
Response line: 6.30 to 7.30

Prompt line: Quick one: pIC50 of CCc1cc(Nc2ncc(Br)c(Nc3ccc4nccnc4c3N(C)S(C)(=O)=O)n2)c(OC)cc1N1CCC2(CC1)CC(N(C)C)C2 [Compound I-399] ?
Response line: 6.30 to 7.30

Prompt line: Quick one: pIC50 of COc1cc(N2CCC(N3CCN(C)CC3)CC2)c(C(C)C)cc1Nc1ncc(C#N)c(Nc2ccc3nccnc3c2N(C)S(C)(=O)=O)n1 [Compound I-345] ?
Response line: 6.30 to 7.30

Prompt line: Quick one: pIC50 of CCc1cc(Nc2ncc(Br)c(Nc3ccc4nccnc4c3N(C)S(C)(=O)=O)n2)c(OC)cc1N(C)CCN(C)C [Compound I-392] ?
Response line: 6.30 to 7.30

---

- subject.of.test: various mutants of kinase EGFR (BaF3 cell lines stably transfected with kinase) (Homo sapiens, UniProt P00533, L858R)
- Construct: expressed in transfected cells; host or cells: BaF3
- run.description: Growth inhibitory activity of compounds on BaF3 cell lines stably transfected with kinase (MTS, 48 h)
- Assay type: cell-based
- condition.info: BaF3 cells stably transfected with EGFR L858R, read-out: IC50, growth inhibition, L858R
measurement.label: IC50

Take a look at these entries with their results.
compound.string	IC50
COc1cc(N2CCC(N3CCN(C)CC3)CC2)c(CC2CC2)cc1Nc1ncc(Cl)c(Nc2ccc3nccnc3c2N(C2CC2)S(C)(=O)=O)n1	50 to 500 nM
C=Cc1cc(Nc2ncc(C3CC3)c(Nc3ccc4nccnc4c3N(C)S(C)(=O)=O)n2)c(OC(F)(F)F)cc1N1CCC(N2CCN(C)CC2)CC1	50 to 500 nM
CN1CCN(C2CCN(c3ccc(Nc4ncc(Br)c(Nc5ccc6nccnc6c5N(C)S(C)(=O)=O)n4)c(OC(F)(F)F)c3)CC2)CC1	50 to 500 nM
COc1cc(N2CCC(N3CCN(C)CC3)CC2)c(C2CC2)cc1Nc1ncc(Br)c(Nc2ccc3nccnc3c2N(C)S(C)(=O)=O)n1	50 to 500 nM
CCc1cc(Nc2ncc(Br)c(Nc3ccc4nccnc4c3N(C)S(=O)(=O)CC)n2)c(OC(F)(F)F)cc1N1CCC(N2CCN(C)CC2)CC1	50 to 500 nM
CCN(c1c(Nc2nc(Nc3cc(C)c(N4CCC(N5CCN(C)CC5)CC4)nc3OC)ncc2Cl)ccc2nccnc12)S(C)(=O)=O	500 to 2500 nM
CCc1cc(Nc2ncc(C3CC3)c(Nc3ccc4nccnc4c3N(C)S(C)(=O)=O)n2)c(OC)cc1N1CCC(N2CCN(C)CC2)CC1	≤ 50 nM
C=Cc1cc(Nc2ncc(F)c(Nc3ccc4nccnc4c3N(C)S(C)(=O)=O)n2)c(OC(F)(F)F)cc1N1CCC(N2CCN(C)CC2)CC1	≤ 50 nM

Prompt line: Quick one: IC50 of CCc1cc(Nc2ncc(F)c(Nc3ccc4nccnc4c3N(C)S(C)(=O)=O)n2)c(OC(F)(F)F)cc1N1CCC(N2CCN(C)CC2)CC1 ?
Response line: 50 to 500 nM

Prompt line: Quick one: IC50 of CCc1cc(Nc2ncc(Cl)c(Nc3ccc4nccnc4c3N(CC)S(C)(=O)=O)n2)c(OC)nc1N1CCC(N2CCN(C)CC2)CC1 ?
Response line: ≤ 50 nM

Prompt line: Quick one: IC50 of CCc1cc(Nc2ncc(C(F)(F)F)c(Nc3ccc4nccnc4c3N(C)S(C)(=O)=O)n2)c(OC)cc1N1CCC(N2CCN(C)CC2)CC1 ?
Response line: ≤ 50 nM

---

- subject.of.test: various mutants of kinase EGFR (BaF3 cell lines stably transfected with kinase) (Homo sapiens, UniProt P00533, T790M, form not given)
- Construct: other: BaF3 cells stably transfected with EGFR Δ19Del/T790M; MTS, 48 h; other: BaF3 cell line stably transfected with EGFR Δ19Del/T790M; MTS, 48
- Sequence (P00533 with tags, fused parts or gaps DEL746-750/T790M, form open): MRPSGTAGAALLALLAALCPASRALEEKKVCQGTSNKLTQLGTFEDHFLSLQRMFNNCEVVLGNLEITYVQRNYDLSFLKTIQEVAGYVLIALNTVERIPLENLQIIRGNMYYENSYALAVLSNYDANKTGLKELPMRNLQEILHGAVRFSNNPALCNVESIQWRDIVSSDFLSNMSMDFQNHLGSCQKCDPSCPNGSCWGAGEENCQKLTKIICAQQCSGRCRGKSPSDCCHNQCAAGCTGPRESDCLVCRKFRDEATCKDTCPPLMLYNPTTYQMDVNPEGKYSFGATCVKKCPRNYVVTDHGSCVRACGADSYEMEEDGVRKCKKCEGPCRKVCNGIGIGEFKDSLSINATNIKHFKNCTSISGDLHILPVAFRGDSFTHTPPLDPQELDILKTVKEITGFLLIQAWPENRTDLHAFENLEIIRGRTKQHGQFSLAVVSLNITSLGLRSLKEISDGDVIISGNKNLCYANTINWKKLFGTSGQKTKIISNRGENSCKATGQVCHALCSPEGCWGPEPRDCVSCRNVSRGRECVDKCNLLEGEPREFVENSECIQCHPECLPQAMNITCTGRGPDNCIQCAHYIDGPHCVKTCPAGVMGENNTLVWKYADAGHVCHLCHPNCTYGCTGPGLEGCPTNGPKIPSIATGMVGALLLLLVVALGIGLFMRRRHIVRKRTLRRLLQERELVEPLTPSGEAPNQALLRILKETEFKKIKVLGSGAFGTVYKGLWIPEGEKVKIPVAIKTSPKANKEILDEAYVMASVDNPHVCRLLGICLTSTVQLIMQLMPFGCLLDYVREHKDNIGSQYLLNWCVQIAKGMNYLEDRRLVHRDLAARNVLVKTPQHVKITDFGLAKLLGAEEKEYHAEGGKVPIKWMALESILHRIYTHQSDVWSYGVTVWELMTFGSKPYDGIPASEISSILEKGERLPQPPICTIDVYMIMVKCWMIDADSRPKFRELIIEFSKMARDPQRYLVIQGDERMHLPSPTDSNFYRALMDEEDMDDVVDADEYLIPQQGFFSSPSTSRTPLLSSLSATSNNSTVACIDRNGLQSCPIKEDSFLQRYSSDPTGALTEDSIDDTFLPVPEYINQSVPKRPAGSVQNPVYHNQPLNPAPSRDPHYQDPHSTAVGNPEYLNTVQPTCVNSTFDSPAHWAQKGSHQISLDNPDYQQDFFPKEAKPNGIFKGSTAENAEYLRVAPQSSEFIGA
- run.description: Growth inhibitory activity of compounds on BaF3 cell lines stably transfected with kinase (MTS, 48 h)
- Assay type: cell-based
- condition.info: BaF3 cells stably transfected with EGFR Δ19Del/T790M, read-out: IC50, growth inhibition, Δ19Del/T790M
measurement.label: IC50

compound.string	result
CCc1cc(Nc2ncc([N+](=O)[O-])c(Nc3ccc4nccnc4c3N(C)S(C)(=O)=O)n2)c(OC)cc1N1CCC(N(C)C)CC1	≤ 50 nM
COc1cc(N2CCC(N3CCN(C)CC3)CC2)c(CC2CC2)cc1Nc1ncc(Br)c(Nc2ccc3nccnc3c2N(C)S(=O)(=O)C2CC2)n1	50 to 500 nM

// next item, IC50 requested
Prompt line: Quick one: IC50 of COc1cc(N2CCC(N3CCN(C)CC3)CC2)c(C)cc1Nc1ncc(F)c(Nc2ccc3nccnc3c2N(C)S(=O)(=O)C2CC2)n1 ?
Response line: 50 to 500 nM

---

- subject.of.test: various mutants of kinase EGFR (BaF3 cell lines stably transfected with kinase) (Homo sapiens, UniProt P00533, L858R/T790M)
- Construct: expressed in transfected cells; host or cells: BaF3
- Sequence (P00533 25-1210 T790M/L858R): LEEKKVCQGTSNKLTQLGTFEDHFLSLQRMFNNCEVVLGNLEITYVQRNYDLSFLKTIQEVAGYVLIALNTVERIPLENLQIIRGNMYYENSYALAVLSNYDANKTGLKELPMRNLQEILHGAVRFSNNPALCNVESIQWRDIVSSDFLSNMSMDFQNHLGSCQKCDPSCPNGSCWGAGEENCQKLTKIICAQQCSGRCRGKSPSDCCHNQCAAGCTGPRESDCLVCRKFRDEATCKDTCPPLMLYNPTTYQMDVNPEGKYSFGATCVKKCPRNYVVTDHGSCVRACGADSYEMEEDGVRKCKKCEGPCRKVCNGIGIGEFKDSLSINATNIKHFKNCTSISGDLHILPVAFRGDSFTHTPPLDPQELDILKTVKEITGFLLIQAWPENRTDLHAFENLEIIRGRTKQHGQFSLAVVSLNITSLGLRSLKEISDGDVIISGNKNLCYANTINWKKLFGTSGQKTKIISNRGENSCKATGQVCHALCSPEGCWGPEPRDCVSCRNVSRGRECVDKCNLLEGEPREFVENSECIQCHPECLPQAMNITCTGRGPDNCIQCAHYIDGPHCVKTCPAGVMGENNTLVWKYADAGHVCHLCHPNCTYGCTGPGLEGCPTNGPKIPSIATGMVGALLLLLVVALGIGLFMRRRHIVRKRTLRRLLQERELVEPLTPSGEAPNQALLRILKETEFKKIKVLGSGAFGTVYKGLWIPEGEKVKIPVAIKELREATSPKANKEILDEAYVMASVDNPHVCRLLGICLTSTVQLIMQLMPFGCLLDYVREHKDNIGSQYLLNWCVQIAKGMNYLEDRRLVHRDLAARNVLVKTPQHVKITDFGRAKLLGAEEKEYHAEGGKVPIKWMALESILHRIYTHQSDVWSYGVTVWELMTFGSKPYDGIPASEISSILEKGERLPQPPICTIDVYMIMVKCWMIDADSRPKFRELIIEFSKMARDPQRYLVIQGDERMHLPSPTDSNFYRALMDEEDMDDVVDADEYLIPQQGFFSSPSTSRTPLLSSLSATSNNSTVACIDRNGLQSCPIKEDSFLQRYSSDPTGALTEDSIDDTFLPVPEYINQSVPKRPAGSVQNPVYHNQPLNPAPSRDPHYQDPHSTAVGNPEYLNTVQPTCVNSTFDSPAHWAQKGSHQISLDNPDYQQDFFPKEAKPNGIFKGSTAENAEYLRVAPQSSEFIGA
- run.description: Growth inhibitory activity of compounds on BaF3 cell lines stably transfected with kinase (MTS, 48 h)
- Format: cell-based
- condition.info: BaF3 cells stably transfected with EGFR L858R/T790M, read-out: IC50, growth inhibition, L858R/T790M
pIC50: −log10 of the molar value.
measurement.label: pIC50

Prompt line: Quick one: pIC50 of COc1cc(N2CCC(N3CCN(C)CC3)CC2)c(Cc2ccccc2)cc1Nc1ncc(Br)c(Nc2ccc3nccnc3c2N(C)S(C)(=O)=O)n1 ?
Response line: 5.60 to 6.30

Prompt line: Quick one: pIC50 of CCc1cc(Nc2ncc(Cl)c(Nc3ccc4nccnc4c3N(C)S(=O)(=O)C(C)C)n2)c(OC)cc1N1CCC(N(C)C)C1 (stereo not shown) ?
Response line: 6.30 to 7.30

Prompt line: Quick one: pIC50 of COc1cc(N2CCC(N(C)C)C2)c(C)cc1Nc1ncc(F)c(Nc2ccc3nccnc3c2N(C)S(C)(=O)=O)n1 (stereo not shown) ?
Response line: 6.30 to 7.30

Prompt line: Quick one: pIC50 of CCc1cc(Nc2ncc(Cl)c(Nc3ccc4nccnc4c3N(C)S(=O)(=O)C3CC3)n2)c(OC)cc1N1CCC(N(C)C)CC1 ?
Response line: ≥ 7.30

Prompt line: Quick one: pIC50 of COc1cc(N2CCC(N3CCN(C)CC3)CC2)ccc1Nc1ncc(F)c(Nc2ccc3nccnc3c2N(C)S(=O)(=O)C2CC2)n1 ?
Response line: 5.60 to 6.30

Prompt line: Quick one: pIC50 of CCc1cc(Nc2ncc(C)c(Nc3ccc4nccnc4c3N(C)S(C)(=O)=O)n2)c(OC)cc1N1CCC(N(C)C)C1 (stereo not shown) ?
Response line: ≥ 7.30

Prompt line: Quick one: pIC50 of COc1cc(N2CCC(N3CCN(C)CC3)CC2)c(CC2CC2)cc1Nc1ncc(Cl)c(Nc2ccc3nccnc3c2N(C)S(=O)(=O)C2CC2)n1 ?
Response line: 6.30 to 7.30

Prompt line: Quick one: pIC50 of COc1cc(N2CCC(N3CCN(C)CC3)CC2)c(CC2CC2)cc1Nc1ncc(Cl)c(Nc2ccc3nccnc3c2N(C)S(C)(=O)=O)n1 ?
Response line: ≥ 7.30

Prompt line: Quick one: pIC50 of C=Cc1cc(Nc2ncc(Cl)c(Nc3ccc4nccnc4c3N(CC)S(C)(=O)=O)n2)c(OC(F)(F)F)cc1N1CCC(N2CCN(C)CC2)CC1 ?
Response line: ≥ 7.30

Prompt line: Quick one: pIC50 of CCc1cc(Nc2ncc(Cl)c(Nc3ccc4nccnc4c3N(CC)S(C)(=O)=O)n2)c(OC)nc1N1CCC(N2CCN(C)CC2)CC1 ?
Response line: ≥ 7.30

Prompt line: Quick one: pIC50 of CCc1cc(Nc2ncc(Cl)c(Nc3ccc4nccnc4c3N(C3CC3)S(C)(=O)=O)n2)c(OC)cc1N1CCC(N2CCN(C)CC2)CC1 ?
Response line: ≥ 7.30

Prompt line: Quick one: pIC50 of CCc1cc(Nc2ncc(OC)c(Nc3ccc4nccnc4c3N(C)S(C)(=O)=O)n2)c(OC)cc1N1CCN(C)CC1 ?
Response line: ≥ 7.30

Prompt line: Quick one: pIC50 of CCc1cc(Nc2ncc(Cl)c(Nc3ccc4nccnc4c3N(CC)S(C)(=O)=O)n2)c(OC(F)(F)F)cc1N1CCC(N2CCN(C)CC2)CC1 ?
Response line: ≥ 7.30
